# System: LNCaP
# EXPERIMENT: Antiproliferative activity against human LNCAP cells after 48 hrs by MTT assay
# Type: functional, cell-based
REPORTED_METRIC: pIC50
Scale note: pIC50 = -log10(concentration in M).

Which pIC50 reading was recorded for the molecule CCCCCCC(C)(C)C1=CC(=O)C2=C(OC(C)(C)c3c[nH]nc32)C1=O ?
4.82

----------
For each entry below, report its Ki value.
Reply numerically in nM, unit not repeated.

Record lookup: for Cannabinoid receptor 2 (Homo sapiens), what Ki belongs to CCCCCCC(C)(C)C1=CC(=O)C2=C(OC(C)(C)c3c[nH]nc32)C1=O ?
134

Ki of CCCCCCC(C)(C)C1=CC(=O)C2=C(OC(C)(C)c3cn(C)nc32)C1=O on Cannabinoid receptor 2 (Homo sapiens)?
672

Write down the reported Ki of CCCCCCC(C)(C)C1=CC(=O)C2=C(OC(C)(C)c3cn(CC)nc32)C1=O , test system: Cannabinoid receptor 2 (Homo sapiens).
Sequence (P34972 whole entry): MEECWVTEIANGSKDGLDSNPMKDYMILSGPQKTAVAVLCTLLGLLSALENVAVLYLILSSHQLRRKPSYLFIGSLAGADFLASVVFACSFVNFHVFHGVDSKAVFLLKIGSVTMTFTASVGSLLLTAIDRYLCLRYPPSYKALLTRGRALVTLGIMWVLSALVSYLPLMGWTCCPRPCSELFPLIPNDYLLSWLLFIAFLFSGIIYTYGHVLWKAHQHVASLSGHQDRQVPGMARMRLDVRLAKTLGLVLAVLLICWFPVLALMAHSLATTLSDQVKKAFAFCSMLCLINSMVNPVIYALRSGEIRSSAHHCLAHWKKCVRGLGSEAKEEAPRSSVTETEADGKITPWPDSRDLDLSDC
3660

----------
REPORTED_METRIC: Ki
Write the numeric value and append its unit.

Query the reported Ki for UniProt P21554; item: CCCCCCC(C)(C)C1=CC(=O)C2=C(OC(C)(C)c3c[nH]nc32)C1=O
Sequence (P21554 whole entry): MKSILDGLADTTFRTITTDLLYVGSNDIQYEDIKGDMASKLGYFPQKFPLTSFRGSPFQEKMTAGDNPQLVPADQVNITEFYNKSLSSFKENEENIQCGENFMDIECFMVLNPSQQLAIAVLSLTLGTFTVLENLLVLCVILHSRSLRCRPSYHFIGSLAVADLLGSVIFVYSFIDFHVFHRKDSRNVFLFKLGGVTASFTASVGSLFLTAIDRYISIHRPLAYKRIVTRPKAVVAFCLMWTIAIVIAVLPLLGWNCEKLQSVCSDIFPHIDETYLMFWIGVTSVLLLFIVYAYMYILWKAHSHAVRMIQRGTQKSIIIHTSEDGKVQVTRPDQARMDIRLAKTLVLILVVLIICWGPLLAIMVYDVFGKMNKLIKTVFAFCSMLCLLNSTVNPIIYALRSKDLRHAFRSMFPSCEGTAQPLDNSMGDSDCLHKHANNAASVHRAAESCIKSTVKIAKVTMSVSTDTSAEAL
0.324 µM

API: value(readout=Ki, system=UniProt P21554) for record CCCCCCC(C)(C)C1=CC(=O)C2=C(OC(C)(C)c3cn(C)nc32)C1=O
14.2 µM

Please tell me: Ki of CCCCCCC(C)(C)C1=CC(=O)C2=C(OC(C)(C)c3cn(CC)nc32)C1=O , system UniProt P21554?
8.52 µM

----------
# Test system: HepG2
# EXPERIMENT: Antiproliferative activity against human HepG2 cells after 48 hrs by MTT assay
# Assay type: functional, cell-based
# TEST_SETTINGS: HepG2, 48 h
REPORTED_METRIC: IC50 (µM)
# number only, unit µM dropped from output

Endpoint output: IC50 of CCCCCCC(C)(C)C1=CC(=O)C2=C(OC(C)(C)c3c[nH]nc32)C1=O . Value?
30
